# TARGET_ENTITY: Melanocortin receptor 4 (Homo sapiens)
# Sequence (P32245 whole entry): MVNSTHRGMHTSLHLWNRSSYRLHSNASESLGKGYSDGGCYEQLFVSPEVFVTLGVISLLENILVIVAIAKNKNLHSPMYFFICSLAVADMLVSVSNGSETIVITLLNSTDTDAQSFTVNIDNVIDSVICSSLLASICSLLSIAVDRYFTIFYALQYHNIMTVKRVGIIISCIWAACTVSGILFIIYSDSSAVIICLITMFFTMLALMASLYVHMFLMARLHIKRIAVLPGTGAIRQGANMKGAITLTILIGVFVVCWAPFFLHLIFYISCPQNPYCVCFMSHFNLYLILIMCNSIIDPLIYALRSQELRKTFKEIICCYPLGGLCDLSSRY
# EXPERIMENTAL_PROTOCOL: Displacement of [125I]NDP-alpha-MSH from human MC4 receptor expressed in CHO cells
pIC50: −log10 of the molar value.
OBSERVATION_TYPE: pIC50

[[record]]
compound_smiles = "C[C@@H]1CN(C(=O)N[C@H](Cc2ccc(F)cc2)C(=O)N2CCC(C(=O)NC(C)(C)C)(C3CCCCC3)CC2)C[C@H](C)N1"
measurement = 8.31

[[record]]
compound_smiles = "C[C@@H]1CN(C(=O)N[C@H](Cc2ccc(F)cc2)C(=O)N2CCC(C(=O)NC(C)(C)C)(C3CCCCC3)CC2)C[C@@H](C)N1"
measurement = 7.96

[[record]]
compound_smiles = "C[C@@H]1CN(C(=O)N[C@H](Cc2ccc(F)cc2)C(=O)N2CCC(C(=O)NC(C)(C)C)(C3CCCCC3)CC2)C[C@H](C)N1C"
measurement = 7.80

[[record]]
compound_smiles = "CC[C@@H]1CN(C(=O)N[C@H](Cc2ccc(F)cc2)C(=O)N2CCC(C(=O)NC(C)(C)C)(C3CCCCC3)CC2)C[C@@H](CC)N1"
measurement = 8.29


a: CC[C@@H]1CN(C(=O)N[C@H](Cc2ccc(F)cc2)C(=O)N2CCC(C(=O)NC(C)(C)C)(C3CCCCC3)CC2)C[C@H](CC)N1
b: C[C@H]1CN(C(=O)N[C@H](Cc2ccc(F)cc2)C(=O)N2CCC(C(=O)NC(C)(C)C)(C3CCCCC3)CC2)C[C@H](C)N1
c: C[C@@H]1CN(C(=O)N[C@H](Cc2ccc(Cl)cc2)C(=O)N2CCC(C(=O)NC(C)(C)C)(C3CCCCC3)CC2)C[C@H](C)N1
Q: Please list these compounds in decreasing order of pIC50. # the answer lists labels in the order requested
Ans: c, a, b

----------
# EXPERIMENTAL_PROTOCOL: Plasma concentration in rat at 10 mg/kg, iv after 15 mins
# Format: ADME, organism-based
# Set-up: dose 10 mg/kg, route intravenous
OBSERVATION_TYPE: concentration at 0.25 h (µM)
Unit µM implied. Number only.

Q: Tell us which concentration at 0.25 h value is on record for `C[C@@H]1CN(C(=O)N[C@H](Cc2ccc(F)cc2)C(=O)N2CCC(C(=O)NC(C)(C)C)(C3CCCCC3)CC2)C[C@H](C)N1`
Ans: 4.7

----------
# EXPERIMENTAL_PROTOCOL: Oral bioavailability in rhesus monkey at 1 mg/kg
# Format: ADME, organism-based, Macaca mulatta
# CONDITION_NOTES: in vivo
OBSERVATION_TYPE: bioavailability (%)
Numbers only; they are read as %.

Q: Indicate its recorded bioavailability; the compound in question is `C[C@@H]1CN(C(=O)N[C@H](Cc2ccc(F)cc2)C(=O)N2CCC(C(=O)NC(C)(C)C)(C3CCCCC3)CC2)C[C@H](C)N1`
Ans: 20

----------
# TARGET_ENTITY: Melanocortin receptor 3 (Homo sapiens, UniProt P41968)
# Sequence (P41968 whole entry): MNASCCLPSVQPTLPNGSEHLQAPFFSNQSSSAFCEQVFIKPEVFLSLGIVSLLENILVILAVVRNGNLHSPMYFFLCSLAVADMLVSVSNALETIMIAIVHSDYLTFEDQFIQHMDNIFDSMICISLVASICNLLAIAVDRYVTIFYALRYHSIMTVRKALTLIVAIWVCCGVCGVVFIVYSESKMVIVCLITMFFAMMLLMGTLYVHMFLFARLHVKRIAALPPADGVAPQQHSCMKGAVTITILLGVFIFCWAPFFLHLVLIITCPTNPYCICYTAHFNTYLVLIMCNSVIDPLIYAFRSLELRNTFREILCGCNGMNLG
# EXPERIMENTAL_PROTOCOL: Displacement of [125I]NDP-alpha-MSH from human MC3 receptor expressed in CHO cells
pIC50: −log10 of the molar value.
OBSERVATION_TYPE: pIC50

[[record]]
compound_smiles = "CC[C@@H]1CN(C(=O)N[C@H](Cc2ccc(F)cc2)C(=O)N2CCC(C(=O)NC(C)(C)C)(C3CCCCC3)CC2)C[C@@H](CC)N1"
measurement = 6.41

[[record]]
compound_smiles = "C[C@@H]1CN(C(=O)N[C@H](Cc2ccc(Cl)cc2)C(=O)N2CCC(C(=O)NC(C)(C)C)(C3CCCCC3)CC2)C[C@H](C)N1"
measurement = 7.48

[[record]]
compound_smiles = "C[C@@H]1CN(C(=O)N[C@H](Cc2ccc(F)cc2)C(=O)N2CCC(C(=O)NC(C)(C)C)(C3CCCCC3)CC2)C[C@@H](C)N1"
measurement = 6.01

[[record]]
compound_smiles = "C[C@@H]1CN(C(=O)N[C@H](Cc2ccc(F)cc2)C(=O)N2CCC(C(=O)NC(C)(C)C)(C3CCCCC3)CC2)C[C@H](C)N1C"
measurement = 6.12

[[record]]
compound_smiles = "C[C@@H]1CN(C(=O)N[C@H](Cc2ccc(F)cc2)C(=O)N2CCC(C(=O)NC(C)(C)C)(C3CCCCC3)CC2)C[C@H](C)N1"
measurement = 6.19


1: CC[C@@H]1CN(C(=O)N[C@H](Cc2ccc(F)cc2)C(=O)N2CCC(C(=O)NC(C)(C)C)(C3CCCCC3)CC2)C[C@H](CC)N1
2: C[C@H]1CN(C(=O)N[C@H](Cc2ccc(F)cc2)C(=O)N2CCC(C(=O)NC(C)(C)C)(C3CCCCC3)CC2)C[C@H](C)N1
Q: Select one: 1 or 2 . Criterion: greater recorded pIC50. API: response body contains the label of the selected item.
Ans: 1
(1: 6.64, 2: 6.13)

----------
# EXPERIMENTAL_PROTOCOL: Oral bioavailability in Beagle dog at 1 mg/kg
# Type: ADME, organism-based, Canis lupus familiaris
# CONDITION_NOTES: in vivo
OBSERVATION_TYPE: bioavailability (%)
Please state the figure in %; there is no need to write the unit.

Q: Consider the compound `C[C@@H]1CN(C(=O)N[C@H](Cc2ccc(F)cc2)C(=O)N2CCC(C(=O)NC(C)(C)C)(C3CCCCC3)CC2)C[C@H](C)N1` . State its measured bioavailability.
Ans: 118

----------
# TARGET_ENTITY: UniProt:P33032
# Sequence (P33032 whole entry): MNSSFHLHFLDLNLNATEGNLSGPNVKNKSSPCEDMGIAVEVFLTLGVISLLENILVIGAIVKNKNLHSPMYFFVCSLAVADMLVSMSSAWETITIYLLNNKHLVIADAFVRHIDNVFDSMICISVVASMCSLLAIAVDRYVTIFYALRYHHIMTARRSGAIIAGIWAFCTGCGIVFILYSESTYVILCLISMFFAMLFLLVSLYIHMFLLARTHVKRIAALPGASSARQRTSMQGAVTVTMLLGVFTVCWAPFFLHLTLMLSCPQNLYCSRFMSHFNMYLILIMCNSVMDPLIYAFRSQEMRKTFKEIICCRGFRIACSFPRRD
# EXPERIMENTAL_PROTOCOL: Displacement of [125I]NDP-alpha-MSH from human MC5 receptor expressed in CHO cells
pIC50: −log10 of the molar value.
OBSERVATION_TYPE: pIC50

Known pIC50 results, listed for orientation:
[[record]]
compound_smiles = "CC[C@@H]1CN(C(=O)N[C@H](Cc2ccc(F)cc2)C(=O)N2CCC(C(=O)NC(C)(C)C)(C3CCCCC3)CC2)C[C@@H](CC)N1"
target_entity = "UniProt:P33032"
observation_type = "pIC50"
measurement = 5.89

[[record]]
compound_smiles = "C[C@H]1CN(C(=O)N[C@H](Cc2ccc(F)cc2)C(=O)N2CCC(C(=O)NC(C)(C)C)(C3CCCCC3)CC2)C[C@H](C)N1"
target_entity = "UniProt:P33032"
observation_type = "pIC50"
measurement = 5.85


P: CC[C@@H]1CN(C(=O)N[C@H](Cc2ccc(F)cc2)C(=O)N2CCC(C(=O)NC(C)(C)C)(C3CCCCC3)CC2)C[C@H](CC)N1
Q: C[C@@H]1CN(C(=O)N[C@H](Cc2ccc(F)cc2)C(=O)N2CCC(C(=O)NC(C)(C)C)(C3CCCCC3)CC2)C[C@@H](C)N1
R: C[C@@H]1CN(C(=O)N[C@H](Cc2ccc(Cl)cc2)C(=O)N2CCC(C(=O)NC(C)(C)C)(C3CCCCC3)CC2)C[C@H](C)N1
Q: Which order do these items take when sorted by rising pIC50? List them. Response format: the labels, sorted as the prompt asks.
Ans: Q, P, R
(Q: 5.85, P: 6.37, R: 7.27)

P: C[C@@H]1CN(C(=O)N[C@H](Cc2ccc(F)cc2)C(=O)N2CCC(C(=O)NC(C)(C)C)(C3CCCCC3)CC2)C[C@H](C)N1C
Q: C[C@@H]1CN(C(=O)N[C@H](Cc2ccc(F)cc2)C(=O)N2CCC(C(=O)NC(C)(C)C)(C3CCCCC3)CC2)C[C@H](C)N1
Q: Looking only at measured pIC50, which entry is lower, P or Q ? Answer = label.
Ans: P
(P: 5.85, Q: 6.07)

----------
# EXPERIMENTAL_PROTOCOL: Oral bioavailability in Sprague-Dawley rat at 1 mg/kg and 4 mg/kg
# Assay type: ADME, organism-based
# CONDITION_NOTES: in vivo
OBSERVATION_TYPE: bioavailability (%)

// worked examples, bioavailability included
[[record]]
compound_smiles = "C[C@@H]1CN(C(=O)N[C@H](Cc2ccc(F)cc2)C(=O)N2CCC(C(=O)NC(C)(C)C)(C3CCCCC3)CC2)C[C@H](C)N1"
measurement = 28

[[record]]
compound_smiles = "CC[C@@H]1CN(C(=O)N[C@H](Cc2ccc(F)cc2)C(=O)N2CCC(C(=O)NC(C)(C)C)(C3CCCCC3)CC2)C[C@@H](CC)N1"
measurement = 18


a: C[C@@H]1CN(C(=O)N[C@H](Cc2ccc(F)cc2)C(=O)N2CCC(C(=O)NC(C)(C)C)(C3CCCCC3)CC2)C[C@@H](C)N1
b: CC[C@@H]1CN(C(=O)N[C@H](Cc2ccc(F)cc2)C(=O)N2CCC(C(=O)NC(C)(C)C)(C3CCCCC3)CC2)C[C@H](CC)N1
Q: Which shows the larger bioavailability value: a or b ? Mark your answer with the label of the selected entry.
Ans: b
(b: 46%, a: 1.9%)

Measured values drawn from ChEMBL document CHEMBL1759997 for this set.
